Cited source for all entries: patent US9040663B2

assayed.system: MC1-R
measurement.protocol: Competitive inhibition binding assay using [I125]-NDP-α-MSH, MC1-R
measurement.context: membranes of B-16 mouse melanoma cells (endogenous MC1-R), in some instances HEK-293 hMC1-R
reported.property: Ki (nM)

# molecule, uom, value.measured
records = [
    ("CC(=O)N[C@@H](CCCNC(=N)N)C(=O)N[C@H]1CCC(=O)NCCC[C@@H](C(N)=O)NC(=O)[C@H](Cc2c[nH]c3ccccc23)NC(=O)[C@H](CCCNC(=N)N)NC(=O)[C@@H](Cc2cccc(Cl)c2)NC(=O)[C@H]([C@@H](C)O)NC1=O", "nM", 380),
]

[a] CC(=O)N[C@@H](CCCNC(=N)N)C(=O)N[C@H]1CCC(=O)NCCC[C@@H](C(N)=O)NC(=O)[C@H](Cc2c[nH]c3ccccc23)NC(=O)[C@H](CCCNC(=N)N)NC(=O)[C@@H](Cc2ccc(F)cc2)NC(=O)[C@H](CCS(C)(=O)=O)NC1=O
[b] CC(=O)N[C@@H](CCCNC(=N)N)C(=O)N[C@H]1CCC(=O)NCCC[C@@H](C(N)=O)NC(=O)[C@H](Cc2c[nH]c3ccccc23)NC(=O)[C@H](CCCNC(=N)N)NC(=O)[C@@H](Cc2ccc(F)cc2)NC(=O)[C@H](CCN)NC1=O
Parameter check: reported Ki is higher for which label, a or b ? State your choice using its label.
a
(a: 33 nM, b: 0.5 nM)

[I] CC(=O)N[C@@H](CCCNC(=N)N)C(=O)N[C@H]1CCC(=O)NCCC[C@@H](C(N)=O)NC(=O)[C@H](Cc2c[nH]c3ccccc23)NC(=O)[C@H](CCCNC(=N)N)NC(=O)[C@@H](Cc2ccc(C#N)cc2)NC(=O)[C@H](CC(N)=O)NC1=O
[II] COc1ccc(C[C@H]2NC(=O)[C@H](CCN)NC(=O)[C@@H](NC(=O)[C@H](CCCNC(=N)N)NC(C)=O)CCC(=O)NCCC[C@@H](C(N)=O)NC(=O)[C@H](Cc3c[nH]c4ccccc34)NC(=O)[C@H](CCCNC(=N)N)NC2=O)cc1
Between I and II , which one shows the smaller Ki number? Use the label to indicate which entry you chose.
II
(II: 0.15 nM, I: 870 nM)

[1] CC(=O)N[C@@H](CCCNC(=N)N)C(=O)N[C@H]1CCC(=O)NCCC[C@@H](C(N)=O)NC(=O)[C@H](Cc2c[nH]c3ccccc23)NC(=O)[C@H](CCCNC(=N)N)NC(=O)[C@@H](Cc2ccccc2F)NC(=O)[C@H](CC(N)=O)NC1=O
[2] CC(=O)N[C@@H](CCCNC(=N)N)C(=O)N[C@H]1CCC(=O)NCCC[C@@H](C(N)=O)NC(=O)[C@H](Cc2c[nH]c3ccccc23)NC(=O)[C@H](CCCNC(=N)N)NC(=O)[C@@H](Cc2ccc(Cl)c(Cl)c2)NC(=O)[C@H](CCN)NC1=O
[3] CC(=O)N[C@@H](CCCNC(=N)N)C(=O)N[C@H]1CCC(=O)NCCC[C@@H](C(N)=O)NC(=O)[C@H](Cc2c[nH]c3ccccc23)NC(=O)[C@H](CCCNC(=N)N)NC(=O)[C@@H](Cc2ccccc2Cl)NC(=O)[C@H](COCc2ccccc2)NC1=O
Put the entries in order of Ki, starting with the largest number. Hello, could you send the labels back in the order asked? Thank you.
1, 3, 2
